molecular target: Aminopeptidase N (Plasmodium falciparum FcB1/Columbia); assay: malaria alanyl aminopeptidase activity blockers – biochemical, fluorogenic H-Leu-NHMec substrate, 1536-well (AID 1445); parameters: species or system Plasmodium falciparum 3D7, 3D7
Sequence (O96935 whole entry): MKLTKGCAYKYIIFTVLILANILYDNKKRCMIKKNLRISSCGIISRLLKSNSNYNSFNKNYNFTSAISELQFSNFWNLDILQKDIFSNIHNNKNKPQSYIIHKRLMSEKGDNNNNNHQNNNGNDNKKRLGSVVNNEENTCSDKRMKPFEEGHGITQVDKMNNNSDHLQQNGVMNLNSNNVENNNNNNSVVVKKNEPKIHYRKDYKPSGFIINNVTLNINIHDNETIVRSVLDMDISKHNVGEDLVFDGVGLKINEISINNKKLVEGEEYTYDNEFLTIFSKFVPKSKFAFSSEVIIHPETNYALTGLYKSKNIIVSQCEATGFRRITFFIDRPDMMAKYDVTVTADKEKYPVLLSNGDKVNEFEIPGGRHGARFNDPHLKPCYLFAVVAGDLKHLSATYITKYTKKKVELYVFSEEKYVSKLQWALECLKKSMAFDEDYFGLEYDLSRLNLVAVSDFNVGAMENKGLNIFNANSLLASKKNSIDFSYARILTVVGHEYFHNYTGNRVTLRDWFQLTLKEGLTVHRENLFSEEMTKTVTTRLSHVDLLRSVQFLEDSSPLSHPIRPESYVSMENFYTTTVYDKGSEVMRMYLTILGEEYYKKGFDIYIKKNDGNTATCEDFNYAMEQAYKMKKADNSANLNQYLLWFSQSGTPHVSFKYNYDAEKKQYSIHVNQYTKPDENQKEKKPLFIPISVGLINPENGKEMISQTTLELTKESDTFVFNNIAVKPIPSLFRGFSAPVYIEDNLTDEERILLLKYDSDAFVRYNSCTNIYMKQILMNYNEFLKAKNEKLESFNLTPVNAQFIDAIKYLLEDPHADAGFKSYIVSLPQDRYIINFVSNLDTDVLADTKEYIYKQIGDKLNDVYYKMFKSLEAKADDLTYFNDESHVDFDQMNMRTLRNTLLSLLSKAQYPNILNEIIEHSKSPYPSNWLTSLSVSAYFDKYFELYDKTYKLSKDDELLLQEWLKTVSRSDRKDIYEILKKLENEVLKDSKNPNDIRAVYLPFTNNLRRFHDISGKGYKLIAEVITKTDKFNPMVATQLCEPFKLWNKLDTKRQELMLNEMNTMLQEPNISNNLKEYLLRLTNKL
Active and inactive are the calls of the source. The rule behind the calls is not given here.
measurement-label: IC50

Cc1nc2ccccc2c(=O)n1NC(=O)c1ccco1 : 70.7 µM (active)
O=C(COc1ccccc1/C=C1\SC(=O)NC1=O)Nc1ccc(F)cc1 : 27.5 µM (active)
O=C(Nc1ccc(Cl)cc1C(=O)O)c1ccc2c(c1)C(=O)N(Cc1ccco1)C2=O : 137 µM (active)
O=C(O)CSc1nc(-c2ccc(Cl)cc2)nc2c1oc1ccccc12 : 82.7 µM (active)

Switching to the query record.
*Q* Field: IC50 (Aminopeptidase N (Plasmodium falciparum FcB1/Columbia)). Entry: COc1cccc(-c2nc(SCC(=O)Nc3nc(-c4ccccc4)c(C)s3)[nH]c(=O)c2C#N)c1
*A* 21.2 µM (active)
